# Target entity: Fuc(a1-2)Gal6S(b1-3)GlcNAc6S
# Procedure text: glycan array binding signal (z-score within array); higher = stronger binding
# Condition parameters: glycan notation: IUPAC condensed, linker removed
About 410 targets per protein were measured; listed, in parts, are those with the strongest signals and a random draw of the rest.
Assign classes using reported glycan array binding signal (z-score) values and the ranges low bracket = under 0.01, middle bracket = from 0.01 up to 4, high bracket = 4 and over, please.

Past entries and their recorded results:
Query string: Please classify: Epa2 (Candida glabrata) (protein) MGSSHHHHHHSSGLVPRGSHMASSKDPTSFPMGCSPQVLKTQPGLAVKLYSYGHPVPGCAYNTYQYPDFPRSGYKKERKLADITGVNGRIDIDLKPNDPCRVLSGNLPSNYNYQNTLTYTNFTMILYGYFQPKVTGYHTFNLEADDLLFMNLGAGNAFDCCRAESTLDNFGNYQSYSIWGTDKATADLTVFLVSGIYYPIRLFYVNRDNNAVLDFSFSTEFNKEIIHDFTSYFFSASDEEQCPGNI
Result string: middle bracket

Query string: Determine which band this binder sits in: Epa3to2 (Candida glabrata) (protein) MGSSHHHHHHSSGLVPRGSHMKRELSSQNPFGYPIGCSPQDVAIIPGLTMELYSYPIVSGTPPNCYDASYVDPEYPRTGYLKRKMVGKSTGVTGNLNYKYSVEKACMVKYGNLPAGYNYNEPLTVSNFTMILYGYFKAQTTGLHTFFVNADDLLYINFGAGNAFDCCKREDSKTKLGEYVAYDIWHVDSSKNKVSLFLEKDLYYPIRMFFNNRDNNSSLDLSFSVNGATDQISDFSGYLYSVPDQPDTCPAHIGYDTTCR
Result string: middle bracket

Query string: Dear colleague, I would appreciate it if you could identify the bin for Mg3lysM (Mycosphaerella graminicola) (protein) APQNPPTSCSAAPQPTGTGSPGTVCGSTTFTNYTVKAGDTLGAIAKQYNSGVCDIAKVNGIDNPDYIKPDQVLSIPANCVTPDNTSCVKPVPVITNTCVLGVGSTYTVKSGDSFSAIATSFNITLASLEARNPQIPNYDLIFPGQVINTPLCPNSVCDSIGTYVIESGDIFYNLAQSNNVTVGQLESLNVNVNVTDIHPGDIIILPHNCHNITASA and reply at your convenience.
Result string: low bracket

Continuing:
Query string: Which band does RBMC2 (Vibrio cholerae) (protein) KISVRSGFAIDAIGASASTLVGGTGGNLNAAVNVKDIKAIDLTWGKYYWGGYHLLALDFRMSNGSVISMGSKNYAYSKQTERFTVPAGSRIKGIKAWTAGWLLDGVQFELA fall in?
Result string: low bracket

Query string: For this binder, which bin applies? FliC (Clostridium difficile) (protein) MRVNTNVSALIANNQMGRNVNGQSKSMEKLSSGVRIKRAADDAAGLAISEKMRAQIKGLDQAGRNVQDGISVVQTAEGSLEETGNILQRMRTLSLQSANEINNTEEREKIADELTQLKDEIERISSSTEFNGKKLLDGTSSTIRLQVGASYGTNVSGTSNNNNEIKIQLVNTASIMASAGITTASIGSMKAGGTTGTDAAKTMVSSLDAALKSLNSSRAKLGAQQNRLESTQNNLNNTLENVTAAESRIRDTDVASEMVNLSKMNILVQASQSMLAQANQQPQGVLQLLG
Result string: middle bracket

Query string: # bin label for Epa22 (Candida glabrata) (protein) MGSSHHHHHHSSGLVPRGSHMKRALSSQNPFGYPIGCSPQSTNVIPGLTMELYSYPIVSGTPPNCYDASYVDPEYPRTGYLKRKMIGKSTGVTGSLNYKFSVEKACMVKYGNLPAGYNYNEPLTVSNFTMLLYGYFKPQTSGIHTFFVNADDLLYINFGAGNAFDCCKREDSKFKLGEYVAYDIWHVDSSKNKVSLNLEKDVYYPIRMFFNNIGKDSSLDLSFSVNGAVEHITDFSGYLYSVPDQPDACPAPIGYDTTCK
Result string: high bracket

Query string: Band assignment needed for Apa (Mycobacterium tuberculosis), Rv1860 (protein) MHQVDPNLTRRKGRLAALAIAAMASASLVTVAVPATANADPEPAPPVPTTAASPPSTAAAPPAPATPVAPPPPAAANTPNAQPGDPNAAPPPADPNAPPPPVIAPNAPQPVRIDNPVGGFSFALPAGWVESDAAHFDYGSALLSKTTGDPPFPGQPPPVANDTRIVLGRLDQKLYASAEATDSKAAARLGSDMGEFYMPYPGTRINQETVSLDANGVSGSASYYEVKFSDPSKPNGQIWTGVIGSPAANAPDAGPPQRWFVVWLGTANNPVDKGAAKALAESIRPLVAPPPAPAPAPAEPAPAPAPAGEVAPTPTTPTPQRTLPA please.
Result string: middle bracket

Query string: Assign a bin to Epa21 (Candida glabrata) (protein) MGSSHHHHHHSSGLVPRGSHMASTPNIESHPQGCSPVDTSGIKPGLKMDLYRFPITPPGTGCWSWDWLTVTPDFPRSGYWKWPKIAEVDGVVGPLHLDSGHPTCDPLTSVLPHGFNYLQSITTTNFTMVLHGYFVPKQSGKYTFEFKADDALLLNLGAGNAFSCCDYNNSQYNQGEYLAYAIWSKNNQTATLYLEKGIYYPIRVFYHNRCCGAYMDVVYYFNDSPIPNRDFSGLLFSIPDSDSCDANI
Result string: high bracket
